# Test system: Bacillus anthracis
# Procedure summary: Antibacterial activity against Bacillus anthracis by microdilution method
# Format: functional, organism-based
Readout name: IC50 (µM)
Numbers only, in µM.

Smiles repr | System | Quantity unit | IC50
CCCCN(CCCC)CCCNc1nc(NC2CCCCCCC2)nc(NC23CC4CC(CC(C4)C2)C3)n1 | Bacillus anthracis | µM | 86
CCCCN(CCCC)CCCNc1nc(NC2CCCCCC2)nc(NC23CC4CC(CC(C4)C2)C3)n1 | Bacillus anthracis | µM | 41

Now let's try a different one.
Consider the compound shown here: CCN(CC)CCCNc1nc(NCCc2ccccc2)nc(NC23CC4CC(CC(C4)C2)C3)n1 What is its recorded IC50?
21
